These entries and their values trace back to PubChem BioAssay AID2112.

Molecular target: Lysosomal alpha-glucosidase (Homo sapiens)
Test: qHTS Assay for Inhibitors and Activators of Human alpha-Glucosidase From Spleen Homogenate
Conditions: 4-MU-alpha-glucoside fluorescence; series mostly up to 79.9 µM
About 15 (0.006%) of roughly 240,000 compounds were called active. The list is a sample of the results.
Measured Property: outcome

Check out these entries, answers already filled in.
{"columns": ["Molecule", "Measured Result"],
 "data": [
  ["C=C1CCN(C(CC(C)C)C(=O)N2CCOCC2)S(=O)(=O)c2ccccc21 (stereo unspecified)", "inactive"],
  ["COc1ccc(C2=NN(C(=O)c3cccnc3)C(c3ccccc3)C2)cc1 (stereo unspecified)", "inactive"],
  ["O=C(CSc1ccccn1)Nc1nc2c(ccc3ccccc32)s1", "inactive"],
  ["CC(C)CO", "inactive"]
]}

QUERY: Can you share its outcome? I mean this molecule: COc1ccc(C(CC(=O)c2ccccc2)S(=O)(=O)c2ccccc2)cc1 (stereo unspecified)
RESULT: inactive

QUERY: Consider the molecule shown here: Cc1cc(C)c(NC(=O)CN2C(=O)NC(Cc3ccccc3)C2=O)c(C)c1 (stereo unspecified) What is its recorded outcome?
RESULT: inactive

QUERY: Can you share its outcome? I mean this molecule: CC(=O)NNC(=O)c1csc(Cc2c(Cl)sc3ccc(Cl)cc23)n1
RESULT: inactive

QUERY: What measured outcome goes with C/C=C(\C)C(=O)NCCN1C2=NC[C@H](Cc3ccc(O)cc3)N2C[C@@H]1Cc1ccc(OC)cc1 ?
RESULT: inactive

QUERY: Quick one: outcome for COc1ccc(CN2CCC(=O)c3ccccc3S2(=O)=O)cc1 ?
RESULT: inactive

QUERY: Give the measured outcome of O=C(CN1C(=O)NC(Cc2ccccc2)(Cc2ccccc2)C1=O)NCC1CCCCC1 .
RESULT: inactive

QUERY: Suppose we examine the molecule N#CC1=C(N)Oc2[nH]c(=S)[nH]c(=O)c2C12C(=O)Nc1ccccc12 (stereo unspecified) ; what outcome value has been reported?
RESULT: inactive
